Test: Stability in Simulated Gastric Fluid (SGF)
Format: in vitro ADME
Design: key: % parent compound remaining relative to 0-minute sample
Conditions: % remaining at 1 h in simulated gastric fluid
// values below are reported SGF
For clarity, give the value followed by its unit.

Please review the entries below; each comes with its answer.
cpd.smiles: CC(C)C[C@H](NC(=O)OC(C)(C)C)C(=O)NCCC(=O)OCn1ccc2c1c(=O)[nH]c(=S)n2CCOC(C)C
measurement.type: SGF
test.value: 92% remaining

cpd.smiles: CC(C)OCCn1c(=S)[nH]c(=O)c2c1ccn2COC(=O)CCNC(=O)[C@H](Cc1c[nH]c2ccccc12)NC(=O)OC(C)(C)C.O=C(O)C(F)(F)F
measurement.type: SGF
test.value: 90% remaining

Ask: Supply measured SGF of `CSCC[C@H](NC(=O)OCC1c2ccccc2-c2ccccc21)C(=O)NCCC(=O)OCn1ccc2c1c(=O)[nH]c(=S)n2CCOC(C)C.O=C(O)C(F)(F)F` in your reply.
Result: 88% remaining

###

Assay: Stability in Simulated Gastric Fluid (SGF)
Format: in vitro ADME
Set-up: key: % parent compound remaining relative to 0-minute sample
Conditions: % remaining at 1 h in simulated gastric fluid; the 15th table
measurement.type: SGF (% @ 1 h)
Field: numeric (% @ 1 h). Do not append units.

Please review the entries below; each comes with its answer.
molecule: CCN(C(=O)OCSc1nc(=O)c2[nH]ccc2n1CCOC(C)C)C(C)C [Example 190]
SGF [% @ 1 h]: 99
--
molecule: CCCNC(=O)OCSc1nc(=O)c2c(ccn2COC(=O)NCCC)n1CCOC(C)C [Example 183]
SGF [% @ 1 h]: 94

# ---- query molecule ----
Ask: Supply measured SGF of CCN(C(=O)OCSc1nc(=O)c2c(ccn2COC(=O)N(CC)C(C)C)n1CCOC(C)C)C(C)C [Example 189] in your reply.
Result: 99

###

// values below are reported Papp at 90 min, 10 µM
Assay: Caco-2 Permeability Assay
Assay type: in vitro ADME, human
Conditions: human, Caco-2, pH 7.4
Field: numeric (×10⁻⁶ cm/s). Do not append units.

Please review the entries below; each comes with its answer.
cpd.smiles: CC(C)OCCn1c(=S)[nH]c(=O)c2c1ccn2COC(=O)[C@@H](NC(=O)OC(C)(C)C)C(C)C
Papp at 90 min, 10 µM, ×10⁻⁶ cm/s: 26.8
--
cpd.smiles: CC(C)OCCn1c(=S)[nH]c(=O)c2c1ccn2COC(=O)CCCCOC(=O)[C@@H](N)C(C)C.O=C(O)C(F)(F)F
Papp at 90 min, 10 µM, ×10⁻⁶ cm/s: 3.32
--
cpd.smiles: CC(C)OCCn1c(=S)n(COC(=O)[C@H](N)C(C)C)c(=O)c2c1ccn2COC(=O)[C@H](N)C(C)C.O=C(O)C(F)(F)F.O=C(O)C(F)(F)F
Papp at 90 min, 10 µM, ×10⁻⁶ cm/s: 1.72
--
cpd.smiles: CC(C)OCCn1c(=S)[nH]c(=O)c2c1ccn2COC(=O)[C@H](N)C(C)C
Papp at 90 min, 10 µM, ×10⁻⁶ cm/s: 12.9
--
cpd.smiles: CC(C)OCCn1c(=S)n(COC(=O)CCCCOC(=O)[C@H](N)C(C)C)c(=O)c2c1ccn2COC(=O)CCCCOC(=O)[C@H](N)C(C)C.O=C(O)C(F)(F)F.O=C(O)C(F)(F)F
Papp at 90 min, 10 µM, ×10⁻⁶ cm/s: 3.86
--
cpd.smiles: CC(C)OCCn1c(=S)n(COC(=O)[C@H](Cc2ccccc2)NC(=O)OC(C)(C)C)c(=O)c2c1ccn2COC(=O)[C@H](Cc1ccccc1)NC(=O)OC(C)(C)C
Papp at 90 min, 10 µM, ×10⁻⁶ cm/s: 0.34
--
cpd.smiles: CC(C)C[C@@H](NC(=O)OC(C)(C)C)C(=O)OCSc1nc(=O)c2c(ccn2COC(=O)[C@@H](CC(C)C)NC(=O)OC(C)(C)C)n1CCOC(C)C
Papp at 90 min, 10 µM, ×10⁻⁶ cm/s: 25.4

# ---- query compound ----
Ask: Supply measured Papp at 90 min, 10 µM of `CC(C)OCCn1c(=S)n(COC(=O)[C@@H](Cc2ccccc2)NC(=O)OC(C)(C)C)c(=O)c2c1ccn2COC(=O)[C@@H](Cc1ccccc1)NC(=O)OC(C)(C)C` in your reply.
Result: 0.334
